MEASUREMENT TARGET: HIV-1 RT (Human immunodeficiency virus type 1 group M subtype B)
EXPERIMENTAL PROTOCOL: Homopolymer HIV Reverse Transcriptase Assay: Inhibitor IC50 Determination
Format: biochemical
EXPERIMENTAL PARAMETERS: purified recombinant enzyme, poly(rA)/oligo(dT)16 template-primer, [3H] dTTP, 37° C. 30 min
Procedure: Homopolymer HIV Reverse Transcriptase Assay: Inhibitor IC50 Determination HIV-1 RT assay was carried out in 96-well Millipore MultiScreen MADVNOB50 plates using purified recombinant enzyme and a poly(rA)/oligo(dT)16 template-primer in a total volume of 50 μL. […] Finally, the plates were dried and radioactivity counted in a Packard TopCounter after the addition of 25 μl scintillation fluid per well. IC50's were calculated by plotting % inhibition versus log10 inhibitor concentrations.
Each entry below lists one item and its recorded IC50 value.
Supply the numeric figure in nM, leaving out any unit text.

>>> value_observed("Cc1cc(C(=O)NCC(O)CO)ccc1NC(=O)Cc1ccc(Cl)c(Oc2cc(Cl)cc(C#N)c2)c1F (stereo not drawn)")
20.6
>>> value_observed("Cc1cc(C(=O)NS(C)(=O)=O)ccc1NC(=O)Cc1ccc(Br)c(Oc2cc(Cl)cc(C#N)c2)c1F")
4.6

Briefly, IC50 measured for "Cc1cc(C(=O)NCc2cccnc2)ccc1NC(=O)Cc1ccc(Cl)c(Oc2cc(Cl)cc(C#N)c2)c1F" : 16.6
